B1: glmS ribozyme (parent)
chain: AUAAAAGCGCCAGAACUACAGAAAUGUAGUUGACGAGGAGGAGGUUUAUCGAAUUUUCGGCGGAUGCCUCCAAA

# Variants of: B1
# method: self-cleavage kobs at 2500 uM GlcN6P; higher = faster cleavage; RNA array
# condition.parameters: with glucosamine-6-phosphate
This sample holds only a part of the variants without activity.
Label Criterion met when self-cleavage kobs at 2500 uM GlcN6P is at or above 0.0005 s⁻¹; anything below gets Criterion not met.

Past entries and their recorded results:
AUAAAAGCGCCAGAACUACAGAAAUGUAGUUGGCGAGGAUGAGGUUUAUCGAAUUUUCUGCGGAUGCCUCCAAA [A33G G40U G59U] ... Criterion not met
AUAAAAGCGCCAGAACUACAGAAAUGUAGUUGACGGGGUGGAGGUUUUUCGAAUUUUCGGCGGAUGCCUGCAAA [A36G A39U A48U C70G] ... Criterion not met
AUAAAAGCGCCAGAACUACAGAAAUGUAGUUGACGAGGAGGAUGUUGAUCGAAUUUUCCGCGGAUGCCUCCAAA [G43U U47G G59C] ... Criterion not met
AUAAAAGCGCCAGAACUACAGAAAUGUAGUGUACGAGGAGGAGGUUUAUCGAAUUUUUGGCGGAUGCCUCCAAA [U31G G32U C58U] ... Criterion not met
AUAAAAGCGCCAGAACUACAGAAAUGUAGUUGACGAGGAGGAGGUUUGUGGUAUUUUCGGCGGAUGCCUCCAAA [A48G C50G A52U] ... Criterion not met
AUAAAAGCGCAAGAACUACAGAAAUGUAGUUGACGAGGAGGAUGUUUAUCGAAGUUUCGGCGGAUGCCUCCAAA [C11A G43U U54G] ... Criterion not met
AUAAAAGCGCCAGAACUACAGAAAUGUAGAUGACGAGGAGGAGGUUUAUCGAAUUAUCGUCGGAUGCCUCCAAA [U30A U56A G60U] ... Criterion not met
AUAAAAGCGCCAGAACUACAGAAAUGUAAUUGACGAGGAGGAGGUUUAUCGAAUUUUCGUCGGGUGCCUCCAAA [G29A G60U A64G] ... Criterion not met
AUAAAUGCGCGAGCACUACAGAAAUGUAGUUGACGAGGAGUAGGUUUAUCGAAUUUUCGGCGGAUGCCUCCAAA [A6U C11G A14C G41U] ... Criterion not met
AUAAAAGCGCCAGAGCUACAGAAAUGUAGUUGGCGAGGAGGAGGUUUCUCGAAUUUUCGGAGGAUGCCUCCAAA [A15G A33G A48C C61A] ... Criterion not met

Please check the record AUAAAAGCGCUAGAACUACAGAAAUGUAAUUGACGAGUAGGAGGUUCAUCGAAUUUUCGGCGGAUGCCUCCAAA [C11U G29A G38U U47C] and state if its self-cleavage kobs at 2500 uM GlcN6P is at or above 0.0005 s⁻¹.
Criterion not met

Please check the record AUAAAAGCGCCGGAACUACAGAAAUGUAGUUGACGCGGAGGAGGUUUAUCGAAUUUUCGGCGGAUGCCUCCAAA [A12G A36C] and state if its self-cleavage kobs at 2500 uM GlcN6P is at or above 0.0005 s⁻¹.
Criterion not met

Please check the record AUAAAAGCGCCAGAACUACAGAAAUGUAGUUAACGAGGAGGAGGUUUAUCGAAUUUUCGGCGGAUACCUCCAAA [G32A G66A] and state if its self-cleavage kobs at 2500 uM GlcN6P is at or above 0.0005 s⁻¹.
Criterion met

Please check the record AUAAAAGCGCCAGGACUACAGAAAUGUAGUAGACGAGGAGAAGGUUUAUCGAAUUUUCGGCGGAUGCCUCUAAA [A14G U31A G41A C71U] and state if its self-cleavage kobs at 2500 uM GlcN6P is at or above 0.0005 s⁻¹.
Criterion not met

Please check the record AUAAAAGCGCCAGAACUACAGAAAUGUAGUUGACGAGGAGGAGGUUUAUCGAAUUUUUGGCGGACGCCUCCAAA [C58U U65C] and state if its self-cleavage kobs at 2500 uM GlcN6P is at or above 0.0005 s⁻¹.
Criterion not met

Please check the record AUAAAAGCGCCAGAACUACAGAAAUGUAGUUGACGAGGAGGAGGUUUAUCGGAUUUUAGGCGCAUGCGUCCAAA [A52G C58A G63C C68G] and state if its self-cleavage kobs at 2500 uM GlcN6P is at or above 0.0005 s⁻¹.
Criterion not met

Please check the record AUAAAAGCGCCAUAACUACAGAAAUGUAGUUGACGAGGCGGAGGUUUCUCGAAUUUUCGGCGGAUGCCUCCAAA [G13U A39C A48C] and state if its self-cleavage kobs at 2500 uM GlcN6P is at or above 0.0005 s⁻¹.
Criterion not met

Please check the record AUAAAAGCGCCAGAACUACAGAAAUGUAGUUGACGAGGAGGAGGUUCAUCGAAUUUUCGGCGGAUGCCUGCAAA [U47C C70G] and state if its self-cleavage kobs at 2500 uM GlcN6P is at or above 0.0005 s⁻¹.
Criterion not met

Please check the record AUAAAAGCGCCAGAACUACAGAAAUGUAGUUGACGAGGAGGAGGUUUAUCGUAUUUUCGGCGGAUGACUCUAAA [A52U C67A C71U] and state if its self-cleavage kobs at 2500 uM GlcN6P is at or above 0.0005 s⁻¹.
Criterion not met

Please check the record AUAAAAGCGCCAGAACUACAGAAAUGUAGUUGACGAGGAGGUGGUUAAUCGAAUUUUCGGCGGAUGCCUCCAAA [A42U U47A] and state if its self-cleavage kobs at 2500 uM GlcN6P is at or above 0.0005 s⁻¹.
Criterion not met
